system: CHO-TAX 5-6; assay: Cytotoxic activity on paclitaxel-resistant CHO-TAX 5-6 cell line expressing mutated tubulin; type: functional, cell-based; details: Cricetulus griseus
pIC50: −log10 of the molar value.
Param threshold (5) applies to pIC50; output T when value >= threshold, F when value < threshold.

>>> cat("O=C(NCCCl)Nc1ccc(I)cc1")
"T"
>>> cat("CC(C)(C)c1ccc(NC(=O)NCCCl)cc1")
"T"
>>> cat("C[C@@H](CCl)NC(=O)Nc1ccc(C(C)(C)C)cc1")
"F"
>>> cat("C[C@H](CCl)NC(=O)Nc1ccc(C(C)(C)C)cc1")
"T"
>>> cat("C[C@@H](CCl)NC(=O)Nc1ccc(I)cc1")
"F"

Lookup: Form field: pIC50 at least 5? Entry: C[C@H](CCl)NC(=O)Nc1ccc(I)cc1
Found: T

* * *

Assign pIC50 to each entry below.
system: CHO-VV 3-2; experiment: Cytotoxic activity on colchicine-resistant CHO-VV 3-2 cell line expressing mutated tubulin; assay type: functional, cell-based; conditions: Cricetulus griseus
Answers are plain numbers, as −log10 of the molar value.

For orientation, consider the following solved cases.
>>> readout_value("CC(C)(C)c1ccc(NC(=O)NCCCl)cc1")
4.89
>>> readout_value("C[C@H](CCl)NC(=O)Nc1ccc(I)cc1")
5.33
>>> readout_value("C[C@@H](CCl)NC(=O)Nc1ccc(I)cc1")
4.29

Go through the items and report each one's pIC50.
1. C[C@@H](CCl)NC(=O)Nc1ccc(C(C)(C)C)cc1
2. O=C(NCCCl)Nc1ccc(I)cc1
3. C[C@H](CCl)NC(=O)Nc1ccc(C(C)(C)C)cc1

Found:
4.28
4.64
4.82

* * *

test system: T-24; experiment: In vitro cytotoxic activity required to inhibit human bladder carcinoma T24 cell line; type: functional, cell-based
So basically every entry gets a class from its IC50, ranges being low-valued = under 7 µM, mid-valued = from 7 µM up to 40 µM, high-valued = 40 µM and over

Please review the following examples before continuing.
>>> cat("CC[C@H](CCl)NC(=O)Nc1ccc(C(C)C)cc1")
"mid-valued"
>>> cat("CC(C)c1ccc(NC(=O)N[C@H](C)CCl)cc1")
"low-valued"
>>> cat("C[C@@H](CCl)NC(=O)Nc1ccc2ccccc2c1")
"high-valued"
>>> cat("CC(C)(C)c1ccc(NC(=O)NCCCl)cc1")
"low-valued"
>>> cat("CCC(C)c1ccc(NC(=O)N[C@@H](C)CCl)cc1 (stereo partly specified)")
"mid-valued"
>>> cat("C[C@H](CCl)NC(=O)Nc1ccc(I)cc1")
"low-valued"
>>> cat("C[C@H](CCl)NC(=O)Nc1ccc2c(c1)CCC2")
"mid-valued"
>>> cat("C[C@H](CCl)NC(=O)Nc1ccc2ccccc2c1")
"low-valued"

Lookup: Band of CC(C)c1ccc(NC(=O)NCCCl)cc1 ?
Found: low-valued

Lookup: Can you handle C[C@@H](CCl)NC(=O)Nc1ccc2c(c1)Cc1ccccc1-2 next?
Found: mid-valued

Lookup: Also need O=C(NCCCl)Nc1ccc(I)cc1 , thanks.
Found: mid-valued

* * *

test system: T-24; assay: In vitro cytotoxic activity required to inhibit human bladder carcinoma T24 cell line; format: functional, cell-based
Outcome Measure: pIC50
Give bare numbers, as −log10 of the molar value.

>>> readout_value("C[C@@H](CCl)NC(=O)Nc1ccc(C(C)(C)C)cc1")
4.39
>>> readout_value("CCC(C)c1ccc(NC(=O)NCCCl)cc1 (stereo not given)")
5.43
>>> readout_value("CC[C@H](CCl)NC(=O)Nc1ccc(I)cc1")
4.34
>>> readout_value("C[C@H](CCl)NC(=O)Nc1ccc(C(C)(C)C)cc1")
5.15
>>> readout_value("CC[C@@H](CCl)NC(=O)Nc1ccc(C(C)(C)C)cc1")
4.54

Could you tell me pIC50 for each of these molecules? They are listed below.
1. C[C@H](CCl)NC(=O)Nc1ccc2c(c1)Cc1ccccc1-2
2. C[C@@H](CCl)NC(=O)Nc1ccc(I)cc1
3. CCC(C)c1ccc(NC(=O)N[C@H](C)CCl)cc1 (stereo not given in full)
4. CC[C@@H](CCl)NC(=O)Nc1ccc(I)cc1
5. C[C@@H](CCl)NC(=O)Nc1ccc2c(c1)CCC2
6. CC[C@H](CCl)NC(=O)Nc1ccc(C(C)(C)C)cc1
7. CC(C)c1ccc(NC(=O)N[C@@H](C)CCl)cc1
8. CCC(C)c1ccc(NC(=O)N[C@H](CC)CCl)cc1 (stereo not given in full)

Found:
1: 5.13; 2: 4.23; 3: 5.47; 4: 4.17; 5: 4.04; 6: 4.55; 7: 4.27; 8: 4.55

Look up pIC50 for the entries below, preserving their order.
1. CCC(C)c1ccc(NC(=O)N[C@@H](CC)CCl)cc1 (stereo not given in full)
2. CC[C@@H](CCl)NC(=O)Nc1ccc(C(C)C)cc1

Found:
1. 4.42
2. 4.24
